For each record, write down the corresponding bioavailability.
# experiment: Oral bioavailability in CD1 mouse at 10 mg/kg measured after 0.03 to 24 hrs by UHPLC-TOF method
# Format: ADME, organism-based
# test.settings: in vivo, time 0.03-24 hrs
Answers are plain numbers, in %.

[
  {
    "compound": "NCc1ccc2c(c1)nc(CN1C(=O)C3(CC3)c3ccc(F)cc31)n2CCCC(F)(F)F",
    "bioavailability, %": 46.4
  }
]

Could I get bioavailability for every one of these entries?
1. CC(C)CCn1c(CN2C(=O)C3(CC3)c3cccnc32)nc2cc(CN)ccc21
2. NCc1ccc2c(c1)nc(CN1C(=O)C3(CC3)c3ccc(F)cc31)n2C1CCOCC1
3. NCc1ccc2c(c1)nc(CN1C(=O)C3(CC3)c3ccc(F)cc31)n2C1CCC(O)CC1 (centres undefined)

18.1
39.4
4.4

---

# experiment: Half life in Sprague-Dawley rat liver microsomes preincubated followed by NADPH addition and measured up to 45 mins by LC-MS/MS analysis
# Format: ADME, Microsome
For each record, write down the corresponding half-life.
One number for each entry, in h.

[
  {
    "compound": "NCc1ccc2c(c1)nc(CN1C(=O)C3(CC3)c3ccc(F)cc31)n2CCCC(F)(F)F",
    "half-life / h": 1.33
  }
]

Let us examine a further case.
Any idea what its half-life is? The compound is NCc1ccc2c(c1)nc(CN1C(=O)C3(CC3)c3ccc(F)cc31)n2C1CCC(O)CC1 (centres undefined)
2.45

---

# experiment: Intrinsic clearance in Beagle dog liver microsomes preincubated followed by NADPH addition and measured up to 45 mins by LC-MS/MS analysis
# Assay type: ADME, Canis lupus familiaris, Microsome
For each record, write down the corresponding intrinsic clearance.

Could I get intrinsic clearance for every one of these entries?
1. CC(C)CCn1c(CN2C(=O)C3(CC3)c3cc(F)ccc32)nc2cc(CN)ccc21
2. CC(C)CCn1c(CN2C(=O)C3(CC3)c3ccccc32)nc2cc(CN)ccc21
3. CC(C)CCn1c(CN2C(=O)C3(CCCC3)c3ccncc32)nc2cc(CN)ccc21

1. < 29 µL/min
2. < 28 µL/min
3. < 28 µL/min

---

# experiment: Cytotoxicity against African green monkey Vero cells by MTT assay
# Type: cell-based
# test.settings: chlorocebus sabaeus
result.type: CC50

[
  {
    "substance.smiles": "NCc1ccc2c(c1)nc(CN1C(=O)C3(CC3)c3ccc(F)cc31)n2CCCC(F)(F)F",
    "CC50": "> 4 µM"
  },
  {
    "substance.smiles": "CC(C)CCn1c(CN2C(=O)C3(CC3)c3ccc(Cl)cc32)nc2cc(CN)ccc21",
    "CC50": "4.5 µM"
  },
  {
    "substance.smiles": "CC(C)CCn1c(CN2C(=O)C3(CC3)c3ccc(F)cc32)nc2cc(CN)ccc21",
    "CC50": "3 µM"
  },
  {
    "substance.smiles": "CC(C)CCn1c(CN2C(=O)C3(CC3)c3c(Cl)cccc32)nc2cc(CN)ccc21",
    "CC50": "5.2 µM"
  },
  {
    "substance.smiles": "O=C1N(Cc2nc3ccccc3n2CCCC(F)(F)F)c2cc(F)ccc2C12CC2",
    "CC50": "> 25 µM"
  }
]

Could I get CC50 for every one of these entries?
1. CC(C)CCn1c(CN2C(=O)C3(CCCC3)c3ccccc32)nc2cc(CN)ccc21
2. O=C1N(Cc2nc3cc(Cl)ccc3n2CCCC(F)(F)F)c2cc(F)ccc2C12CC2
3. CC(C)CCn1c(CN2C(=O)C3(CCCC3)c3ccncc32)nc2cc(CN)ccc21
4. CC(C)CCn1c(CN2C(=O)C3(CCC3)c3ccccc32)nc2cc(CN)ccc21
5. CC(C)CCn1c(CN2C(=O)C3(CC3)c3cccc(F)c32)nc2cc(CN)ccc21
6. CC(C)CCn1c(CN2C(=O)C3(CC3)Oc3ccccc32)nc2cc(CN)ccc21
7. CC(C)CCn1c(CN2C(=O)C3(CC3)c3cccc(Cl)c32)nc2cc(CN)ccc21
8. CC(C)CCn1c(CN2C(=O)C3(CC3)c3ccccc32)nc2cc(CN)ccc21

["9.94 µM", "> 25 µM", "23.1 µM", "13.8 µM", "31.1 µM", "22.7 µM", "21.7 µM", "15.3 µM"]

Any idea what its CC50 is? The molecule is CC(C)CCn1c(CN2C(=O)C3(CC3)c3cc(F)ccc32)nc2cc(CN)ccc21
7.6 µM
